# Condition set: siRNA; further: test system not given here
HELM strings list units from the 5' end as sugar, base in round brackets, then linkage (d deoxyribose, r ribose, m 2'-O-methyl, p phosphodiester). Strings are as the collection lists them, not checked against the first reports. ss, as = sense and antisense strand; [lna] = locked nucleic acid (LNA); [fl2r] = 2'-fluoro
Attribute measured: target mRNA knockdown (%)
Reply with just the number (in %).

Prompt line: Note target mRNA knockdown for the substance shown: "RNA1{m(A)p.r(U)p.m(G)p.r(G)p.m(G)p.r(A)p.m(G)p.r(A)p.m(A)p.r(G)p.m(U)p.r(A)p.m(G)p.r(U)p.m(C)p.r(C)p.m(C)p.r(C)p.r(C)p.r(T)p.r(T)}|RNA2{r(G)p.r(G)p.r(G)p.r(G)p.r(G)p.r(A)p.r(C)p.r(U)p.r(A)p.r(C)p.r(U)p.r(U)p.r(C)p.r(U)p.r(C)p.r(C)p.r(C)p.r(A)p.r(U)p.r(T)p.r(T)}$$$RNA1{StrandType:ss}|RNA2{StrandType:as}$"
Response line: 71

Prompt line: Note target mRNA knockdown for the substance shown: "RNA1{r(G)p.r(U)p.r(C)p.m(U)p.r(A)p.m(U)p.r(G)p.r(C)p.m(C)p.r(A)p.r(A)p.r(G)p.r(A)p.r(A)p.r(G)p.r(G)p.r(G)p.r(A)p.r(G)p.r(T)p.r(T)}|RNA2{r(C)p.r(U)p.r(C)p.r(C)p.r(C)p.r(U)p.r(U)p.r(C)p.r(U)p.m(U)p.r(G)p.r(G)p.m(C)p.r(A)p.m(U)p.r(A)p.r(G)p.r(A)p.r(C)p.r(T)p.r(T)}$$$RNA1{StrandType:ss}|RNA2{StrandType:as}$"
Response line: 72

Prompt line: Note target mRNA knockdown for the substance shown: "RNA1{m(C)p.r(U)p.m(C)p.r(U)p.m(G)p.r(G)p.m(C)p.r(C)p.m(U)p.m(U)p.r(U)p.r(C)p.m(U)p.r(C)p.m(U)p.r(C)p.m(U)p.r(A)p.m(G)p.r(T)p.r(T)}|RNA2{r(C)p.r(U)p.r(A)p.r(G)p.r(A)p.r(G)p.r(A)p.r(G)p.r(A)p.r(A)p.r(A)p.r(G)p.r(G)p.r(C)p.r(C)p.r(A)p.r(G)p.r(A)p.r(G)p.r(T)p.r(T)}$$$RNA1{StrandType:ss}|RNA2{StrandType:as}$"
Response line: 24

Prompt line: Note target mRNA knockdown for the substance shown: "RNA1{r(G)p.m(C)p.r(A)p.r(G)p.r(C)p.r(A)p.r(C)p.r(G)p.r(A)p.r(C)p.r(U)p.r(U)p.r(C)p.r(U)p.r(U)p.r(C)p.r(A)p.r(A)p.r(G)p.r(U)p.r(U)}|RNA2{r(U)p.[fl2r](U)p.r(C)p.r(G)p.r(U)p.r(C)p.r(G)p.r(U)p.r(G)p.r(C)p.r(U)p.r(G)p.r(A)p.r(A)p.r(G)p.r(A)p.r(A)p.r(G)p.r(U)p.r(U)p.r(C)}$$$RNA1{StrandType:ss}|RNA2{StrandType:as}$"
Response line: 77.2

Prompt line: Note target mRNA knockdown for the substance shown: "RNA1{r(C)p.r(U)p.r(U)p.r(A)p.r(C)p.r(G)p.r(C)p.r(U)p.r(G)p.r(A)p.r(G)p.r(U)p.r(A)p.r(C)p.r(U)p.r(U)p.r(C)p.r(G)p.r(A)p.r(T)p.r(T)}|RNA2{r(T)p.r(C)p.r(G)p.r(A)p.r(A)p.r(G)p.r(U)p.r(A)p.r(C)p.r(U)p.r(C)p.r(A)p.r(G)p.r(C)p.r(G)p.r(U)p.[lna](A)p.r(A)p.r(G)p.[lna](T)p.[lna](T)}$$$RNA1{StrandType:ss}|RNA2{StrandType:as}$"
Response line: 96

Prompt line: Note target mRNA knockdown for the substance shown: "RNA1{m(C)p.r(U)p.m(A)p.r(C)p.m(C)p.r(U)p.m(U)p.r(C)p.m(U)p.r(C)p.m(C)p.r(U)p.m(C)p.r(U)p.m(U)p.r(C)p.m(U)p.r(C)p.m(C)p.r(T)p.r(T)}|RNA2{r(G)p.r(G)p.r(A)p.r(G)p.r(A)p.r(A)p.r(G)p.r(A)p.r(G)p.r(G)p.r(A)p.r(G)p.r(A)p.r(A)p.r(G)p.r(G)p.r(U)p.r(A)p.r(G)p.r(T)p.r(T)}$$$RNA1{StrandType:ss}|RNA2{StrandType:as}$"
Response line: 27

Prompt line: Note target mRNA knockdown for the substance shown: "RNA1{r(U)p.m(U)p.r(A)p.r(A)p.r(G)p.r(G)p.r(A)p.r(G)p.r(A)p.r(A)p.r(G)p.r(C)p.r(U)p.r(G)p.r(A)p.r(C)p.r(G)p.r(G)p.r(C)p.r(T)p.r(T)}|RNA2{r(G)p.r(C)p.r(C)p.r(G)p.r(U)p.m(C)p.r(A)p.r(G)p.r(C)p.r(U)p.r(U)p.r(C)p.r(U)p.r(C)p.r(C)p.r(U)p.m(U)p.r(A)p.r(A)p.r(T)p.r(T)}$$$RNA1{StrandType:ss}|RNA2{StrandType:as}$"
Response line: 83

Prompt line: Note target mRNA knockdown for the substance shown: "RNA1{[lna](G)p.r(C)p.r(A)p.r(G)p.r(C)p.r(A)p.r(C)p.r(G)p.r(A)p.r(C)p.r(U)p.r(U)p.r(C)p.r(U)p.r(U)p.r(C)p.r(A)p.r(A)p.r(G)p.r(U)p.r(U)}|RNA2{r(C)p.[fl2r](U)p.r(U)p.r(G)p.r(A)p.r(A)p.r(G)p.r(A)p.r(A)p.r(G)p.r(U)p.r(C)p.r(G)p.r(U)p.r(G)p.r(C)p.r(U)p.r(G)p.r(C)p.r(U)p.r(U)}$$$RNA1{StrandType:ss}|RNA2{StrandType:as}$"
Response line: 69.3

Prompt line: Note target mRNA knockdown for the substance shown: "RNA1{r(A)p.r(G)p.r(C)p.r(G)p.r(A)p.r(U)p.r(C)p.r(C)p.r(C)p.m(G)p.r(A)p.r(A)p.m(C)p.r(A)p.r(A)p.r(G)p.m(U)p.r(A)p.r(U)p.r(T)p.r(T)}|RNA2{r(A)p.m(U)p.r(A)p.r(C)p.r(U)p.m(U)p.r(G)p.r(U)p.r(U)p.r(C)p.r(G)p.r(G)p.r(G)p.r(A)p.r(U)p.r(C)p.r(G)p.r(C)p.r(U)p.r(T)p.r(T)}$$$RNA1{StrandType:ss}|RNA2{StrandType:as}$"
Response line: 84

Prompt line: Note target mRNA knockdown for the substance shown: "RNA1{r(G)p.r(A)p.r(G)p.r(G)p.r(A)p.r(A)p.r(G)p.r(A)p.m(U)p.r(G)p.r(A)p.r(G)p.r(U)p.r(U)p.r(G)p.r(U)p.r(A)p.r(C)p.r(C)p.r(T)p.r(T)}|RNA2{r(G)p.r(G)p.r(U)p.r(A)p.m(C)p.r(A)p.r(A)p.r(C)p.r(U)p.m(C)p.r(A)p.r(U)p.r(C)p.r(U)p.r(U)p.r(C)p.r(C)p.r(U)p.r(C)p.r(T)p.r(T)}$$$RNA1{StrandType:ss}|RNA2{StrandType:as}$"
Response line: 77
